Where do these numbers come from? They come from patent US5614533A.

System: HIV (H9/HTLV-IIIB) in C8166 cells
Assay: plaque assay: inhibition of syncytia formation in HIV-infected C8166 cells
Assay type: cell-based
Settings: Human immunodeficiency virus 1, IIIB, Table IV, 72 h, 50% inhibition of syncytia formation
ENDPOINT: pEC50
Give bare numbers, as −log10 of the molar value.

CC[C@H](C)[C@H](NC(=O)OCc1ccccn1)C(=O)N[C@@H](Cc1ccccc1)[C@H](O)CN1CC[C@@H](c2ccccc2)C[C@H]1C(=O)NC(C)(C)C : 6.30
CC[C@H](C)[C@H](NC(=O)OCc1ccccc1)C(=O)N[C@@H](Cc1ccccc1)[C@H](O)CN1CC[C@@H](c2ccccc2)C[C@H]1C(=O)NC(C)(C)C : 6.15
CC(C)(C)NC(=O)[C@@H]1C[C@H](Oc2ccccc2)CCN1C[C@@H](O)[C@H](Cc1ccccc1)NC(=O)[C@H](CC(N)=O)NC(=O)c1ccc2ccccc2n1 : 7.82
CC(C)[C@H](NC(=O)OCc1ccccc1)C(=O)N[C@@H](Cc1ccccc1)[C@H](O)CN1CC[C@@H](S(=O)(=O)c2ccccc2)C[C@H]1C(=O)NC(C)(C)C : 7.40

[ask] Request - read-out pEC50 | tested on HIV (H9/HTLV-IIIB) in C8166 cells | molecule "CC(C)[C@H](NC(=O)OCc1ccccc1)C(=O)N[C@@H](Cc1ccc(F)cc1)[C@H](O)CN1CC[C@@H](Sc2ccccc2)C[C@H]1C(=O)NC(C)(C)C"
[reply] 7.62

###

Target: HIV protease (Human immunodeficiency virus type 1 group M subtype B)
Construct: HIV protease was expressed in E. coli; made in house; host or cells: E. coli (plasmid pBRT1 prt+)
Test: Recombinant HIV Protease HPLC Assay
Type: biochemical
Details: Table IV; 37°, 30 min, pH 5.5
ENDPOINT: IC50 (nM)
Give bare numbers, in nM.

Use the examples below as a reference point.
CC[C@H](C)[C@H](NC(=O)OCc1ccccn1)C(=O)N[C@@H](Cc1ccccc1)[C@H](O)CN1CC[C@@H](c2ccccc2)C[C@H]1C(=O)NC(C)(C)C : 4.9
CC[C@H](C)[C@H](NC(=O)OCc1ccccc1)C(=O)N[C@@H](Cc1ccccc1)[C@H](O)CN1CC[C@@H](c2ccccc2)C[C@H]1C(=O)NC(C)(C)C : 3.7

[ask] Given the entry "CC(C)[C@H](NC(=O)OCc1ccccc1)C(=O)N[C@@H](Cc1ccccc1)[C@H](O)CN1CC[C@@H](S(=O)(=O)c2ccccc2)C[C@H]1C(=O)NC(C)(C)C" , report its measured IC50.
[reply] 2.3

###

Test system: HIV (H9/HTLV-IIIB) in C8166 cells
Experiment: plaque assay: inhibition of syncytia formation in HIV-infected C8166 cells
Type: cell-based
Settings: Human immunodeficiency virus 1, IIIB, Table IV, 72 h, 50% inhibition of syncytia formation
Can you tell me EC50 for the items I'm about to list?

Use the examples below as a reference point.
CC(C)(C)NC(=O)[C@@H]1C[C@H](c2ccccc2)CCN1C[C@@H](O)[C@H](Cc1ccccc1)NC(=O)[C@H](CC(N)=O)NC(=O)OCc1ccccc1 : 150 nM
CC(C)(C)NC(=O)[C@@H]1C[C@H](S(=O)(=O)c2ccccc2)CCN1C[C@@H](O)[C@H](Cc1ccccc1)NC(=O)[C@H](CC(N)=O)NC(=O)OCc1ccccc1 : 1270 nM
CC(C)(C)NC(=O)[C@@H]1C[C@H](Sc2ncccn2)CCN1C[C@@H](O)[C@H](Cc1ccccc1)NC(=O)OCc1ccccc1 : 822 nM

Could you tell me EC50 for each of these compounds? They are listed below.
1. CC(C)[C@H](NC(=O)c1ccc2ccccc2n1)C(=O)N[C@@H](Cc1ccccc1)[C@H](O)CN1CC[C@@H](Sc2ccccc2)C[C@H]1C(=O)NC(C)(C)C
2. CC(C)(C)NC(=O)[C@@H]1C[C@H](Sc2ccncc2)CCN1C[C@@H](O)[C@H](Cc1ccccc1)NC(=O)OCc1ccccc1

[reply]
1: 12 nM; 2: 140 nM

###

Molecular target: HIV protease (Human immunodeficiency virus type 1 group M subtype B)
Construct: HIV protease was expressed in E. coli; made in house; host or cells: E. coli (plasmid pBRT1 prt+)
Experiment: Recombinant HIV Protease HPLC Assay
Format: biochemical
Conditions: Table VI; 37°, 30 min, pH 5.5
ENDPOINT: pIC50
Give bare numbers, as −log10 of the molar value.

CC(C)(C)NC(=O)[C@@H]1C[C@H](Sc2ccccc2)CCN1C[C@@H](O)[C@H](Cc1ccccc1)NC(=O)[C@@H](NC(=O)c1ccc2ccccc2n1)C(C)(C)C [Table VI, entry 1] : 8.52

Could you tell me pIC50 for each of these molecules? They are listed below.
1. C[C@@H](O)[C@H](NC(=O)c1ccc2ccccc2n1)C(=O)N[C@@H](Cc1ccccc1)[C@H](O)CN1CC[C@@H](S(=O)(=O)c2ccccc2)C[C@H]1C(=O)NC(C)(C)C [Table VI, entry 6]
2. CC(C)(C)NC(=O)[C@@H]1C[C@H](Sc2ncccn2)CCN1C[C@@H](O)[C@H](Cc1ccccc1)NC(=O)[C@H](CC(N)=O)NC(=O)c1ccc2ccccc2n1 [Table VI, entry 3]
3. CC(C)(C)NC(=O)[C@@H]1C[C@H](S(=O)(=O)c2ccccn2)CCN1C[C@@H](O)[C@H](Cc1ccccc1)NC(=O)[C@@H](NC(=O)c1ccc2ccccc2n1)C(C)(C)C [Table VI, entry 8]
4. CNC(=O)C[C@H](NC(=O)c1ccc2ccccc2n1)C(=O)N[C@@H](Cc1ccccc1)[C@H](O)CN1CC[C@@H](Oc2ccccc2)C[C@H]1C(=O)NC(C)(C)C [Table VI, entry 4]

[reply]
1. 8.59
2. 8.68
3. 8.54
4. 8.43

###

Target: HIV protease (Human immunodeficiency virus type 1 group M subtype B)
Construct: HIV protease was expressed in E. coli; made in house; host or cells: E. coli (plasmid pBRT1 prt+)
Test: Recombinant HIV Protease HPLC Assay
Assay type: biochemical
ENDPOINT: IC50 (nM)
Answers are plain numbers, in nM.

[ask] Given the entry "Cc1cc(C)nc(S[C@@H]2CCN(C[C@@H](O)[C@H](Cc3ccccc3)NC(=O)OCc3ccccc3)[C@H](C(=O)NC(C)(C)C)C2)n1" , report its measured IC50.
[reply] 12

###

Molecular target: HIV protease (Human immunodeficiency virus type 1 group M subtype B)
Construct: HIV protease was expressed in E. coli; made in house; host or cells: E. coli (plasmid pBRT1 prt+)
Assay: Recombinant HIV Protease HPLC Assay
Assay type: biochemical
Details: Table V; 37°, 30 min, pH 5.5
Text: The procedure is based on the capacity of the test compound to inhibit enzymatic cleavage by HIV protease of a decapeptide (the substrate) having an amino acid sequence which includes a known HIV protease cleavage site of a HIV polyprotein; see H. G. Krausslich et al., Proc. Natl. Acad. Sci. USA, 86, 807 (1989). Details of this assay together with the results obtained for exemplified compounds of formula 1 are described in the examples hereinafter. Recombinant HIV Protease HPLC Assay: […]
Can you tell me pIC50 for the items I'm about to list?
Answers are plain numbers, as −log10 of the molar value.

Use the examples below as a reference point.
Cc1cc(C)nc(O[C@@H]2CCN(C[C@@H](O)[C@H](Cc3ccccc3)NC(=O)[C@@H](NC(=O)c3ccc4ccccc4n3)C(C)C)[C@H](C(=O)NC(C)(C)C)C2)n1 [Table V, entry 11] : 8.40
CC(C)[C@H](NC(=O)c1ccc2ccccc2n1)C(=O)N[C@@H](Cc1ccccc1)[C@H](O)CN1CC[C@@H](S(=O)(=O)Cc2cccnc2)C[C@H]1C(=O)NC(C)(C)C [Table V, entry 18] : 8.74
CC(C)[C@H](NC(=O)c1ccc2ccccc2n1)C(=O)N[C@@H](Cc1ccccc1)[C@H](O)CN1CC[C@@H](SCc2cccnc2)C[C@H]1C(=O)NC(C)(C)C [Table V, entry 8] : 8.66

[ask] Request - read-out pIC50 | tested on HIV protease (Human immunodeficiency virus type 1 group M subtype B) | compound Cc1cc(S[C@@H]2CCN(C[C@@H](O)[C@H](Cc3ccccc3)NC(=O)[C@@H](NC(=O)c3ccc4ccccc4n3)C(C)C)[C@H](C(=O)NC(C)(C)C)C2)nc(C)n1 [Table V, entry 22]
[reply] 8.62

###

Target: HIV protease (Human immunodeficiency virus type 1 group M subtype B, UniProt P04585)
Construct: HIV protease was expressed in E. coli; made in house; host or cells: E. coli (plasmid pBRT1 prt+)
Assay: Recombinant HIV Protease HPLC Assay
Assay type: biochemical
Details: Table IV; 37°, 30 min, pH 5.5
Can you tell me pIC50 for the items I'm about to list?
Answers are plain numbers, as −log10 of the molar value.

CC(C)[C@H](NC(=O)OCc1ccccc1)C(=O)N[C@@H](Cc1ccccc1)[C@H](O)CN1CC[C@@H](Cc2ccccc2)C[C@H]1C(=O)NC(C)(C)C : 8.39
CC(C)(C)NC(=O)[C@@H]1C[C@H](Oc2ccccc2)CCN1C[C@@H](O)[C@H](Cc1ccccc1)NC(=O)[C@H](CC(N)=O)NC(=O)OCc1ccccc1 : 8.60
CC(C)[C@H](NC(=O)OCc1ccccc1)C(=O)N[C@@H](Cc1ccccc1)[C@H](O)CN1CC[C@@H](SCc2ccccc2)C[C@H]1C(=O)NC(C)(C)C : 8.64
CC(C)[C@H](NC(=O)OCc1ccccc1)C(=O)N[C@@H](Cc1ccccc1)[C@H](O)CN1CC[C@@H](Sc2ccncc2)C[C@H]1C(=O)NC(C)(C)C : 8.60
CC(C)[C@H](NC(=O)c1ccc2ccccc2c1)C(=O)N[C@@H](Cc1ccccc1)[C@H](O)CN1CC[C@@H](Sc2ccccc2)C[C@H]1C(=O)NC(C)(C)C : 8.64
CC(C)(C)NC(=O)[C@@H]1C[C@H](Sc2ccccc2)CCN1C[C@@H](O)[C@H](Cc1ccccc1)NC(=O)[C@H](CC(N)=O)NC(=O)c1ccc2ccccc2c1 : 8.72
CC(C)(C)NC(=O)[C@@H]1C[C@H](c2ccccc2)CCN1C[C@@H](O)[C@H](Cc1ccccc1)NC(=O)OCc1ccccc1 : 6.40
CC(C)(C)NC(=O)[C@@H]1C[C@H](Oc2ccccc2)CCN1C[C@@H](O)[C@H](Cc1ccccc1)NC(=O)[C@H](CC(N)=O)NC(=O)c1ccc2ccccc2n1 : 8.27

Could you now consider this next compound?
[ask] Given the entry "CC(C)(C)NC(=O)[C@@H]1C[C@H](Sc2ccccn2)CCN1C[C@@H](O)[C@H](Cc1ccccc1)NC(=O)OCc1ccccc1" , report its measured pIC50.
[reply] 7.80
